# Protocol description: Cytotoxicity against mouse RAW264.7 cells assessed as inhibition of cell viability at 50 uM after 72 hrs by MTT assay relative to control
# Assay type: cell-based
# Stated conditions: read-out: INH
Measure: cytotoxicity at 72 h, 50 µM (%)

INSERT INTO assay_data (compound_smiles, recorded_number) VALUES
  ('CC(=O)c1ccc(NC(=O)N2CCc3c(c(-c4ccccc4)nn3C(=O)c3ccccc3)C2)cc1', 12.8),
  ('Cc1ccc(NC(=O)N2CCc3c(c(-c4ccccc4)nn3C(=O)c3ccccc3)C2)cc1', 57.1),
  ('O=C(C1CCCCC1)n1nc(-c2ccccc2)c2c1CCN(C(=S)Nc1ccc([N+](=O)[O-])cc1)C2', 0);

* * *

# Tested target: Pantothenate synthetase (Mycobacterium tuberculosis)
# Protocol description: Inhibition of Mycobacterium tuberculosis pantothenate synthetase cloned in Escherichia coli BL21 (DE3) using ATP, beta-alanine, pantoic acid as substrate assessed as NAD+ production at 100 uM measured every 12 secs for 120 secs by spectrophotometric analysis relative to control
Measure: inhibition

INSERT INTO assay_data (compound_smiles, result) VALUES
  ('O=C(C1CCCCC1)n1nc(-c2ccccc2)c2c1CCN(C(=S)Nc1ccc([N+](=O)[O-])cc1)C2', '47.3%'),
  ('O=C(C1CCCCC1)n1nc(-c2ccccc2)c2c1CCN(S(=O)(=O)c1cccs1)C2', '52%'),
  ('CCOc1ccc(NC(=O)N2CCc3c(c(-c4ccccc4)nn3C(=O)c3ccccc3)C2)cc1', '47.2%'),
  ('Cc1ccc(NC(=S)N2CCc3c(c(-c4ccccc4)nn3C(=O)C3CCCCC3)C2)cc1', '50.5%'),
  ('Cc1ccc(NC(=O)N2CCc3c(c(-c4ccccc4)nn3C(=O)C3CCCCC3)C2)cc1', '40.8%'),
  ('Cc1ccc(S(=O)(=O)N2CCc3c(c(-c4ccccc4)nn3C(=O)c3ccccc3)C2)cc1', '9%'),
  ('COc1ccc(NC(=S)N2CCc3c(c(-c4ccccc4)nn3C(=O)C3CCCCC3)C2)cc1', '50.6%'),
  ('O=C(Nc1ccc(Br)cc1)N1CCc2c(c(-c3ccccc3)nn2C(=O)C2CCCCC2)C1', '50.5%'),
  ('O=C(C1CCCCC1)n1nc(-c2ccccc2)c2c1CCN(C(=S)NCc1ccccc1)C2', '51.4%'),
  ('O=C(c1ccccc1)n1nc(-c2ccccc2)c2c1CCN(S(=O)(=O)c1cccs1)C2', '48.7%'),
  ('O=C(C1CCCCC1)n1nc(-c2ccccc2)c2c1CCN(S(=O)(=O)c1ccc([N+](=O)[O-])cc1)C2', '50.2%'),
  ('O=C(c1ccccc1)n1nc(-c2ccccc2)c2c1CCN(C(=S)Nc1ccc(Cl)cc1)C2', '37.7%'),
  ('CC(C)NC(=O)N1CCc2c(c(-c3ccccc3)nn2C(=O)c2ccccc2)C1', '40.9%'),
  ('O=C(NCc1ccccc1)N1CCc2c(c(-c3ccccc3)nn2C(=O)C2CCCCC2)C1', '49.1%'),
  ('O=C(c1ccccc1)n1nc(-c2ccccc2)c2c1CCN(C(=S)Nc1ccc(F)cc1)C2', '43.5%'),
  ('O=C(Nc1ccc([N+](=O)[O-])cc1)N1CCc2c(c(-c3ccccc3)nn2C(=O)c2ccccc2)C1', '95.7%'),
  ('O=C(c1ccccc1)n1nc(-c2ccccc2)c2c1CCN(S(=O)(=O)c1ccc(F)cc1)C2', '77%'),
  ('O=C(Nc1ccc(Cl)cc1)N1CCc2c(c(-c3ccccc3)nn2C(=O)c2ccccc2)C1', '40.2%'),
  ('CC(=O)c1ccc(S(=O)(=O)N2CCc3c(c(-c4ccccc4)nn3C(=O)c3ccccc3)C2)cc1', '78.5%'),
  ('O=C(c1ccccc1)n1nc(-c2ccccc2)c2c1CCN(S(=O)(=O)c1ccc([N+](=O)[O-])cc1)C2', '39.7%'),
  ('CCOc1ccc(NC(=O)N2CCc3c(c(-c4ccccc4)nn3C(=O)C3CCCCC3)C2)cc1', '48.5%'),
  ('C=CCNC(=S)N1CCc2c(c(-c3ccccc3)nn2C(=O)c2ccccc2)C1', '41.7%'),
  ('CC(=O)c1ccc(S(=O)(=O)N2CCc3c(c(-c4ccccc4)nn3C(=O)C3CCCCC3)C2)cc1', '39.2%'),
  ('Cc1ccc(S(=O)(=O)N2CCc3c(c(-c4ccccc4)nn3C(=O)C3CCCCC3)C2)cc1', '41.6%'),
  ('CC[C@@H](CO)NCCN[C@@H](CC)CO', '0%'),
  ('COc1ccc(NC(=O)N2CCc3c(c(-c4ccccc4)nn3C(=O)C3CCCCC3)C2)cc1', '38.7%'),
  ('O=C(C1CCCCC1)n1nc(-c2ccccc2)c2c1CCN(C(=S)Nc1ccc(F)cc1)C2', '49.2%'),
  ('CC(=O)c1ccc(NC(=O)N2CCc3c(c(-c4ccccc4)nn3C(=O)C3CCCCC3)C2)cc1', '51.4%'),
  ('COc1ccc(NC(=S)N2CCc3c(c(-c4ccccc4)nn3C(=O)c3ccccc3)C2)cc1', '10.2%'),
  ('O=C(Nc1ccc([N+](=O)[O-])cc1)N1CCc2c(c(-c3ccccc3)nn2C(=O)C2CCCCC2)C1', '50.8%'),
  ('Cc1ccc(NC(=O)N2CCc3c(c(-c4ccccc4)nn3C(=O)c3ccccc3)C2)cc1', '49.4%'),
  ('O=C(C1CCCCC1)n1nc(-c2ccccc2)c2c1CCN(C(=S)Nc1ccc(Cl)cc1)C2', '56.3%'),
  ('Cc1ccc(NC(=S)N2CCc3c(c(-c4ccccc4)nn3C(=O)c3ccccc3)C2)cc1', '23.9%'),
  ('O=C(Nc1ccc(Cl)cc1)N1CCc2c(c(-c3ccccc3)nn2C(=O)C2CCCCC2)C1', '54.7%'),
  ('CC(=O)c1ccc(NC(=O)N2CCc3c(c(-c4ccccc4)nn3C(=O)c3ccccc3)C2)cc1', '43.7%'),
  ('O=C(C1CCCCC1)n1nc(-c2ccccc2)c2c1CCN(S(=O)(=O)c1ccc(F)cc1)C2', '46.8%'),
  ('NNC(=O)c1ccncc1', '0%');

* * *

# Tested target: UniProtKB P9WIL5
# Sequence (P9WIL5 whole entry): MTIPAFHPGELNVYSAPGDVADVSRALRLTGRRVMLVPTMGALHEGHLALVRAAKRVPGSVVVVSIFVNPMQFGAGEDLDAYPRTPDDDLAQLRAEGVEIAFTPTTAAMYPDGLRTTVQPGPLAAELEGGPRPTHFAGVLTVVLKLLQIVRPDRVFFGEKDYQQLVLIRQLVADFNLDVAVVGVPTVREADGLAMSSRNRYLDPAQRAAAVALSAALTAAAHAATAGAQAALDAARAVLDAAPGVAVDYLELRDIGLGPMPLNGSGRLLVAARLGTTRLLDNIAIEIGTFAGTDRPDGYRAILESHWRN
pKd: −log10 of the molar value.
Measure: pKd

INSERT INTO assay_data (compound, recorded_number) VALUES
  ('Cc1ccc2c(c1)C=C(C(=O)NS(=O)(=O)c1cc3ccccc3o1)C2CC(=O)O (stereo unspecified)', 5.74);

* * *

# Tested target: Pantothenate synthetase (Mycobacterium tuberculosis)
# Sequence (whole entry): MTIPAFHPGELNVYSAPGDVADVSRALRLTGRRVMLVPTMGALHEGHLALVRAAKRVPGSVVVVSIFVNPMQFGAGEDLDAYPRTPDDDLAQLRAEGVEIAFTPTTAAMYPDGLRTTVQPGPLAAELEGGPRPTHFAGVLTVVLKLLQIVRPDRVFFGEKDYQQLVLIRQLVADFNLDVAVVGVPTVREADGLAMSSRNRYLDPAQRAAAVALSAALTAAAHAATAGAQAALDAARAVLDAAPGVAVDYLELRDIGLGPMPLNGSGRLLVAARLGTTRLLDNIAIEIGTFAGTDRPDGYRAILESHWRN
# Protocol description: Inhibition of Mycobacterium tuberculosis pantothenate synthetase cloned in Escherichia coli BL21 (DE3) using ATP, beta-alanine, pantoic acid as substrate assessed as NAD+ production at 100 uM measured every 12 secs for 120 secs by spectrophotometric analysis relative to control
Measure: inhibition (%)

INSERT INTO measurements (compound_smiles, recorded_number) VALUES
  ('O=C(Nc1cccc2ccccc12)N1CCc2c(c(-c3ccccc3)nn2C(=O)C2CCCCC2)C1', 50.9),
  ('O=C(c1ccccc1)n1nc(-c2ccccc2)c2c1CCN(C(=S)NCc1ccccc1)C2', 52.1),
  ('O=C(Nc1ccc(Br)cc1)N1CCc2c(c(-c3ccccc3)nn2C(=O)c2ccccc2)C1', 60.6),
  ('O=C(Nc1cccc2ccccc12)N1CCc2c(c(-c3ccccc3)nn2C(=O)c2ccccc2)C1', 89.8),
  ('O=C(NCc1ccccc1)N1CCc2c(c(-c3ccccc3)nn2C(=O)c2ccccc2)C1', 46.2);

* * *

# Tested target: Pantothenate synthetase (Mycobacterium tuberculosis, UniProt P9WIL5)
# Protocol description: Inhibition of Mycobacterium tuberculosis pantothenate synthetase cloned in Escherichia coli BL21 (DE3) using ATP, beta-alanine, pantoic acid as substrate assessed as NAD+ production measured every 12 secs for 120 secs by spectrophotometric analysis
pIC50: −log10 of the molar value.
Form field: pIC50 (one value per entry).
Measure: pIC50

INSERT INTO results (compound_smiles, measure, recorded_number) VALUES
  ('O=C(Nc1ccc([N+](=O)[O-])cc1)N1CCc2c(c(-c3ccccc3)nn2C(=O)c2ccccc2)C1', 'pIC50', 4.66),
  ('O=C(Nc1ccc(Br)cc1)N1CCc2c(c(-c3ccccc3)nn2C(=O)c2ccccc2)C1', 'pIC50', 4.09),
  ('O=C(Nc1cccc2ccccc12)N1CCc2c(c(-c3ccccc3)nn2C(=O)c2ccccc2)C1', 'pIC50', 4.42),
  ('O=C(c1ccccc1)n1nc(-c2ccccc2)c2c1CCN(S(=O)(=O)c1ccc(F)cc1)C2', 'pIC50', 4.41),
  ('CC(C)(C)OC(=O)N1CCc2[nH]nc(-c3ccccc3)c2C1', 'pIC50', 4.66),
  ('CC(=O)c1ccc(S(=O)(=O)N2CCc3c(c(-c4ccccc4)nn3C(=O)c3ccccc3)C2)cc1', 'pIC50', 4.41);
